Biological target: panel of 44 targets (GPCRs, ion channels, enzymes, transporters, nuclear receptors)
Conditions: read-out: IC50 (M) Reference Compound (EC50 for agonist)
experimental readout: EC50 (M)
Quick reminder: number only, in M, skip the unit.

Recorded EC50 for Clc1ccc(C2CC3CCC2N3)cn1 (stereo not shown) [Epibatidine] , please?
2.5e-09

* * *

# Solubility per entry
Assay: Kinetic aqueous solubility
Details: 1% DMSO, Phosphate Buffered Saline pH 7.4, 1 hour, ambient, UV/Vis absorbance
Quick reminder: number only, in µM, skip the unit.

CC(C)Oc1ccc(-c2ccc3c(C(=O)NC(C)(C)COC(=O)CCl)nn(C)c3c2)cc1    1.7

Recorded Solubility for COc1ccc(-c2ccc3c(C(=O)NC(C)(C)COC(=O)CCl)nn(C)c3c2)cc1 , please?
2.9

Recorded Solubility for COc1ccc(-c2ccc3c(C(=O)NC(C)(C)COC(=O)CCl)nn(C)c3c2)cc1Cl , please?
22

Recorded Solubility for Cn1nc(C(=O)NC(C)(C)COC(=O)CCl)c2ccc(-c3cccc(Cl)c3)cc21 , please?
6.1

Recorded Solubility for COc1ccc(-c2ccc3c(C(=O)NC(C)(C)COC(=O)CCl)nn(C)c3c2)cc1C , please?
5.4
